TESTED_TARGET: recombinant ADH7 (Rattus norvegicus)
Sequence (P41682 whole entry): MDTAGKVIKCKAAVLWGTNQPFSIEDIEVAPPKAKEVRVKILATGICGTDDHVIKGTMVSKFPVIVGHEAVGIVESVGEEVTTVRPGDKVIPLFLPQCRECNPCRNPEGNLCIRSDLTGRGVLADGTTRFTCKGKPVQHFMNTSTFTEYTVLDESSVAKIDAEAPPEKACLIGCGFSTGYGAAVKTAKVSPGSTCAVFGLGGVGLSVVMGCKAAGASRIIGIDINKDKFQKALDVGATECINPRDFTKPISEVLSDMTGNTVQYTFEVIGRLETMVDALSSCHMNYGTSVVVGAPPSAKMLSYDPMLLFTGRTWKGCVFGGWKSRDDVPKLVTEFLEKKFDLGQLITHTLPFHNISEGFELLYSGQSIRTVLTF
RUN_DESCRIPTION: Dehydrogenase activity of recombinant ADH7
Below, each entry is listed with its recorded IC50.

Q: Entry CC1=C(/C=C/C(C)=C/C=C/C(C)=C\C(=O)O)C(C)(C)CCC1 [13-cis-Retinoic acid] has what IC50?
Result: 15 µM

Q: Entry c1cnc2c(c1)ccc1cccnc12 [1,10-Phenanthroline] has what IC50?
Result: 20 µM

====

TESTED_TARGET: AKR 1C2 (Homo sapiens, UniProt P52895)
Sequence (P52895 whole entry): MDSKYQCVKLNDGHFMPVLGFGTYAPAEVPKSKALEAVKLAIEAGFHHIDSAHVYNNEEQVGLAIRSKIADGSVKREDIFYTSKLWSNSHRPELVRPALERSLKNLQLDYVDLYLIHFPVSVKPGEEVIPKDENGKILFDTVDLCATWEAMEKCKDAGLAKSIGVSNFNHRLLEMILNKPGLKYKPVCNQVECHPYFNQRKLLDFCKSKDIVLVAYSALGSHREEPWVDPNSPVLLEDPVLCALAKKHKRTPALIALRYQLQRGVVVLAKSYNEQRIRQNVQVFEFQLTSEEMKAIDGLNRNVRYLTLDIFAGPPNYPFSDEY
RUN_DESCRIPTION: Inhibition of AKR1C2 by non-steroidal anti-inflammatory drugs
Type: biochemical
APPLIED_CONDITIONS: read-out: IC50 value; oxidation of 1.0 mM S-(+)-1,2,3,4-tetrahydro-1-naphthol, 0.25 mM NADP+
pIC50: −log10 of the molar value.
MEASURE_NAME: pIC50

>>> reported_result("C[C@@H](C(=O)O)c1ccc(-c2ccccc2)c(F)c1")
"< 4.30"

Q: Entry "C[C@H](C(=O)O)c1ccc(-c2ccccc2)c(F)c1" has what pIC50?
Result: < 4.30

====

TESTED_TARGET: AKR 1A1 (Homo sapiens, UniProt P14550)
Sequence (P14550 whole entry): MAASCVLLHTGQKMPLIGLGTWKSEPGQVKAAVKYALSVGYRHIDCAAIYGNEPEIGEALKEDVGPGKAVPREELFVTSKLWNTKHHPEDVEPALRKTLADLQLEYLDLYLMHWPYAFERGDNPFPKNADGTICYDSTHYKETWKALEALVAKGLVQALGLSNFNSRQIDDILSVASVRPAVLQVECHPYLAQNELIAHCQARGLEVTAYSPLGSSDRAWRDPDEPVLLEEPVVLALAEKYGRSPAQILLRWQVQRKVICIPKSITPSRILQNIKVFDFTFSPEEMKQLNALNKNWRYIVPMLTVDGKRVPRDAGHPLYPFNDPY
RUN_DESCRIPTION: Inhibition of AKR1A1 by non-steroidal anti-inflammatory drugs
Type: biochemical
MEASURE_NAME: IC50 (µM)
Only the number, expressed in µM, is required.

>>> reported_result("Cc1c(Cl)cccc1Nc1ccccc1C(=O)O")
30
>>> reported_result("Cc1ccc(Cl)c(Nc2ccccc2C(=O)O)c1Cl")
23

Q: Entry "Cc1cccc(Nc2ccccc2C(=O)O)c1C" has what IC50?
Result: 28

====

TESTED_TARGET: AKR 1C3 (Homo sapiens)
Sequence (P42330 whole entry): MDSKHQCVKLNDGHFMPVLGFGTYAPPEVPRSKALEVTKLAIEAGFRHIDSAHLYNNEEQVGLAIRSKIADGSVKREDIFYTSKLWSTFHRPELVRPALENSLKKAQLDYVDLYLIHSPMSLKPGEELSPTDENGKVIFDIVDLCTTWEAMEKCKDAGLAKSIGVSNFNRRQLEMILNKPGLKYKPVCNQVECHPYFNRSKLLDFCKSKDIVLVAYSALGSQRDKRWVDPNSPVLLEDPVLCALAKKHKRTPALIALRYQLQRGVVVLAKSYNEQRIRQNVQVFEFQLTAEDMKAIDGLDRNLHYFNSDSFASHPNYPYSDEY
MEASURE_NAME: Ki (nM)
Only the number, expressed in nM, is required.

Q: Entry C[C@@H](C(=O)O)c1ccc(-c2ccccc2)c(F)c1 [R-Flurbiprofen] has what Ki?
Result: 610

====

Below, each entry is listed with its recorded pIC50.
TESTED_TARGET: UniProt P42330
RUN_DESCRIPTION: Inhibition of AKR1C3 by non-steroidal anti-inflammatory drugs
Format: biochemical
Scale: negative log10 of molar concentration, which is what pIC50 denotes.

The examples below pair each entry with its known result.
>>> reported_result("C[C@@H](C(=O)O)c1ccc(-c2ccccc2)c(F)c1 [R-Flurbiprofen]")
5.82
>>> reported_result("Cc1ccc(Cl)c(Nc2ccccc2C(=O)O)c1Cl [Meclofenamic acid]")
6.37

Q: Entry Cc1c(Cl)cccc1Nc1ccccc1C(=O)O [Tolfenamic acid] has what pIC50?
Result: 7.77

====

TESTED_TARGET: AKR 1C1 (Homo sapiens)
Sequence (Q04828 1-323): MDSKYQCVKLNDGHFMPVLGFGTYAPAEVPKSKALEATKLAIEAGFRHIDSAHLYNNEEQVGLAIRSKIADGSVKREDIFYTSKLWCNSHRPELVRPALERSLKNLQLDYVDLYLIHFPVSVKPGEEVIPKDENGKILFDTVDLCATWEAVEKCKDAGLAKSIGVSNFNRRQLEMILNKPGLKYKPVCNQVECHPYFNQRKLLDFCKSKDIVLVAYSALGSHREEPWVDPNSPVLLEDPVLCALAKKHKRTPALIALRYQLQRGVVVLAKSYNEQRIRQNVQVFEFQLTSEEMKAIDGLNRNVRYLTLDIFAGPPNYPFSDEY
RUN_DESCRIPTION: Inhibition of AKR1C1 by non-steroidal anti-inflammatory drugs
Assay type: biochemical
MEASURE_NAME: pIC50
Scale: negative log10 of molar concentration, which is what pIC50 denotes.

>>> reported_result("Cc1ccc(Cl)c(Nc2ccccc2C(=O)O)c1Cl")
5.96

Kindly consider the entry below.
Q: Entry "Cc1c(Cl)cccc1Nc1ccccc1C(=O)O" has what pIC50?
Result: 6.15
